System: RPMI-8226
Assay Protocol: NCI tumour cell line growth inhibition, 48 h
The source made the active and inactive calls. Cut-off read from the data, not from the text of the source: active = GI50 up to about 1.1 µM and inactive = higher.
Can you answer with just one of these options? active, inactive

Please review the entries below; each comes with its answer.
CCNC1=Nc2ccc(Cl)cc2C(c2ccccc2)=NN1 ... inactive
CC(=O)OC1COC(N2c3ccccc3[C@@H]3CCc4c([nH]c5ccccc45)[C@@H]32)C(OC(C)=O)C1OC(C)=O.CC(=O)OC1COC(N2c3ccccc3[C@H]3CCc4c([nH]c5ccccc45)[C@H]32)C(OC(C)=O)C1OC(C)=O (stereo not given in full) ... inactive
CN(C)CCOC1(CC2CCCCC2)CCC(C(C)(C)C)CC1 (stereo not given) ... inactive
CC(NC(=O)OC(C)(C)C)C(=O)NC1CCCC1 (stereo not given) ... inactive
O=C1NC(=O)[C@H]2C3C=CC([C@@H]12)[C@@H]1C(=O)NC(=O)[C@H]31 ... inactive

Task item: Record lookup: outcome of this test for `C=C1C(=O)O[C@@H]2[C@H]1CCC(C)=C1C=CC(=O)[C@]12C` ?
Reply: inactive

Task item: Record lookup: outcome of this test for `N#C/C(N)=C(C#N)/N=C/NCCO` ?
Reply: inactive

Task item: Record lookup: outcome of this test for O=P1(Oc2ccccc2)N(CCCl)CCN1c1ccccc1 (stereo not given) ?
Reply: inactive

Task item: Record lookup: outcome of this test for `Cc1nc(O)nc(O)c1/C=C/C(=O)O` ?
Reply: inactive

Task item: Record lookup: outcome of this test for `COC(=O)c1ccc(O)c2nc3c(C=O)c(O)cc(O)c3nc12` ?
Reply: active

* * *

Tested on: A549
Assay Protocol: NCI tumour cell line growth inhibition, 48 h
Activity calls are given as the source filed them. No stated cut-off is given here; in the data, active = GI50 up to about 1.1 µM and inactive = higher.
Can you answer with just one of these options? active, inactive

OCC1C(O)C(O)[C@@H]2SCCN12 (some centres not stated) ... inactive
COC(=O)c1ccc(O)c2nc3c(C=O)c(O)cc(O)c3nc12 [LOMOFUNGIN] ... active
O=C1O/C(=C(/Br)c2ccc(Cl)c(Cl)c2)c2ccccc21 ... inactive
Cc1nn(C(=O)c2ccccc2O)c2c1C(c1ccc3ccccc3c1O)SC(=N)N2 (configuration not stated) ... inactive
CCc1cccc(C)c1NC(=O)NS(=O)(=O)c1ccc(C)cc1 ... inactive

Task item: Record lookup: outcome of this test for `C=C1C(=O)O[C@@H]2[C@H]1CCC(C)=C1C=CC(=O)[C@]12C` ?
Reply: inactive

Task item: Record lookup: outcome of this test for `CCN(CC)CCOC(=O)/C(=C/c1ccc(OC)cc1)c1cc(OC)c(OC)c(OC)c1` ?
Reply: inactive

Task item: Record lookup: outcome of this test for `CC(C)C(=O)Nc1nc2[nH]cnc2c(=O)[nH]1` ?
Reply: inactive

Task item: Record lookup: outcome of this test for `Cc1nc(O)nc(O)c1/C=C/C(=O)O` ?
Reply: inactive

Task item: Record lookup: outcome of this test for `O=C(CCn1[nH]c(=O)c(Cl)c(Cl)c1=O)NOCCCc1ccccc1` ?
Reply: inactive

Task item: Record lookup: outcome of this test for `Nc1nc(Cl)c(N)c(NCC2(CO)CC2)n1` ?
Reply: inactive

Task item: Record lookup: outcome of this test for `N=c1nc(N)c2cc3c(N)nc(=N)c3cc12` ?
Reply: inactive

Task item: Record lookup: outcome of this test for `CC(=O)O[C@H]1C#C/C=C\C#CC[C@@H]2C(=O)N[C@@H]12` ?
Reply: inactive

Task item: Record lookup: outcome of this test for `N#C/C(N)=C(C#N)/N=C/NCCO` ?
Reply: inactive

Task item: Record lookup: outcome of this test for `Cc1ccc(SCC(=O)C2=C(O)CCCC2=O)cc1` ?
Reply: inactive

Task item: Record lookup: outcome of this test for `CC(=O)Oc1ccc2cc(Oc3ccc(Cl)cc3)c(=O)oc2c1` ?
Reply: inactive

Task item: Record lookup: outcome of this test for `CN(C)c1ccc(/N=N/c2ccncc2)cc1` ?
Reply: inactive

Task item: Record lookup: outcome of this test for `C[C@]12CC[C@H]3[C@@H](CC=C4C[C@@H](O)CC[C@@]43C)[C@@H]1C/C(=C\c1ccncc1)[C@@H]2O` ?
Reply: inactive

* * *

Tested on: HOP-18
Assay Protocol: NCI tumour cell line growth inhibition, 48 h
The source made the active and inactive calls. No stated cut-off is given here; in the data, active = GI50 up to about 1.1 µM and inactive = higher.
Recorded Metric: GI50

COc1cc2cc(OC(C)=O)c3cc4c(cc3c2c(OC)c1OC)OCO4 ... > 100 µM (inactive)
NCCCCCCNCc1cccc2ccccc12 ... 24.2 µM (inactive)
ON=C1CCC(c2ccccc2)CC1 (configuration not stated) ... > 100 µM (inactive)

Please state, for each entry, its recorded GI50.
1. COc1ccc(C(N)=O)cc1/N=N/N(C)C
2. N#CCCC[Si]12OCCN(CCO1)CCO2
3. O=C1Cc2ccccc2CCc2ccsc21
4. COc1c(C)c(O)c2c(=O)cc(-c3ccccc3)oc2c1C
5. C/C(CCn1[nH]c(=O)ccc1=O)=N\Nc1ccc([N+](=O)[O-])cc1[N+](=O)[O-]
6. COc1ccccc1/C=C1\CCC(Cc2ccccc2)(CN(C)C)C1=O (configuration not stated)
7. Cc1cnoc1/N=C1\C=C(Nc2oncc2C)C(=O)c2ccccc21
8. CCCCCC(O)C1C(=O)OC(C)C(O)/C=C/C=C/C=C/C=C/C=C(\C)C(O)C(O)C(O)CC(O)CC(O)CC(O)CC(O)CC1O (configuration not stated)

Reply:
> 100 µM (inactive)
> 100 µM (inactive)
70.8 µM (inactive)
> 100 µM (inactive)
> 100 µM (inactive)
> 26.4 µM (inactive)
> 100 µM (inactive)
2.48 µM (inactive)

* * *

Test system: NCI-H226
Assay Protocol: NCI tumour cell line growth inhibition, 48 h
Active and inactive are the calls of the source. Cut-off read from the data, not from the text of the source: active = GI50 up to about 1.1 µM and inactive = higher.
Recorded Metric: GI50

COC(=O)C1C(=O)CC2CCCCC21 (stereo not drawn) ... > 100 µM (inactive)
CCOC(=O)/C(C(=O)Nc1cccc(Cl)c1)=C(/N)N1CCOCC1 ... > 100 µM (inactive)
COc1cc(C=O)cc(/C=N/n2c3ccccc3c3ccccc32)c1O ... 6.3 µM (inactive)
Cc1occc1C(=S)Nc1ccc(Cl)c(/C=N/OC(C)(C)C)c1 ... 16.9 µM (inactive)
CN(C)CCCNC(=O)c1cc(NC(=O)c2cc(NC(=O)c3cc(NC(=O)CCCn4ccc(CO)c4CO)cn3C)cn2C)cn1C ... 2.97 µM (inactive)
O=C(O)c1cc(-c2ccc3c(O)ccc(O)c3c2)ccc1O ... 19.7 µM (inactive)
Cc1cc(NS(=O)(=O)c2ccc(NC(=O)c3cccc4c(NNc5ccc(S(=O)(=O)N=C(N)N)cc5)c5ccccc5nc34)cc2)no1 ... 25.2 µM (inactive)
CC(=O)Nc1ccc(NNc2cc(=O)n(C)c(=O)[nH]2)cc1 ... 22.4 µM (inactive)
CC(C)C1OC(=O)C(Cc2ccccc2)N(C)C(=O)C(C(C)C)OC(=O)C(Cc2ccccc2)N(C)C(=O)C(C(C)C)OC(=O)C(Cc2ccccc2)N(C)C1=O (stereo not drawn) ... 1.36 µM (inactive)
CN(C)c1ccc(/C=C(\NC(=O)c2ccccc2)c2nn(C)c(=O)o2)cc1 ... 23.4 µM (inactive)

Please state, for each entry, its recorded GI50.
1. CC1=C2C(O)C(C(C)C(=O)N(C)C)CCC2(C)C=CC1=O (stereo not drawn)
2. CSc1ccc(-c2cc(-c3nc4ccccc4[nH]3)nc(N)c2C#N)cc1
3. COc1ccc2cc1Oc1ccc(cc1)CC1c3cc(c(OC)cc3CCN1C)Oc1c3c(cc4c1C(C2)N(C)CC4)OCO3 (stereo not drawn)

Reply:
1: > 100 µM (inactive); 2: 21.3 µM (inactive); 3: 2.35 µM (inactive)

* * *

Test system: ACHN
Assay Protocol: NCI tumour cell line growth inhibition, 48 h
Active and inactive are the calls of the source. No stated cut-off is given here; in the data, active = GI50 up to about 1.1 µM and inactive = higher.
Can you answer with just one of these options? True (active), False (inactive)

Please review the entries below; each comes with its answer.
c1ccc(C2(c3cc4ccccc4[nH]3)OCCO2)nc1 ... False
O=C1C2C(C(=O)N1c1ccccc1)C1(c3ccccc3)CCC2(C(=O)c2ccccc2)O1 (stereo unspecified) ... False
Nc1nc2ncn(CCO)c2c(=S)[nH]1 ... False

Turning to the following compound.
Task item: Record lookup: outcome of this test for `Cc1nc(Cl)c(C)c(Cl)n1` ?
Reply: False

* * *

Test system: SK-MEL-5
Assay Protocol: NCI tumour cell line growth inhibition, 48 h
Activity calls are given as the source filed them. Rule as the data show it: active = GI50 up to about 1.1 µM and inactive = higher.
Recorded Metric: GI50

// solved cases for GI50 follow
O=C1C2C(C(=O)N1c1ccccc1)C1(c3ccccc3)CCC2(C(=O)c2ccccc2)O1 (stereo not given) ... > 10 µM (inactive)
CC1=C(C(=O)Nc2ccccc2C)C(c2ccc([N+](=O)[O-])cc2)C(C(=O)Nc2ccccc2C)=C(C)N1 ... 11.3 µM (inactive)
O=S(=O)(CCn1c(Sc2ccccc2)c(Sc2ccccc2)c2ccccc21)c1ccccc1 ... > 100 µM (inactive)
COc1cc([C@@H]2OC(=O)C3C2C(=O)O[C@H]3c2cc(OC)c(OC)c(OC)c2)cc(OC)c1OC (stereo not given in full) ... > 100 µM (inactive)
CCC1C(C#N)=C(O)NC(O)=C1C#N ... > 100 µM (inactive)
Cc1cc(C)c2c(=O)n(CN3CCC(O)(c4ccccc4)CC3)sc2n1 ... 97.3 µM (inactive)
Cc1occc1C(=S)Nc1ccc(Cl)c(/C=N/OC(C)(C)C)c1 ... 17.3 µM (inactive)
CCN(CC)CCOC(=O)/C(=C/c1ccc(OC)cc1)c1cc(OC)c(OC)c(OC)c1 ... 3.26 µM (inactive)

Please state, for each entry, its recorded GI50.
1. N#CCN1CCN(CC#N)CCN(CC#N)CCN(CC#N)CC1
2. CC1(C)C(c2ccccc2)C12CCC1(C2=O)C(c2ccccc2)C1(C)C (stereo not given)

Reply:
1: > 100 µM (inactive); 2: 18.7 µM (inactive)
